- Tested on: CD1 mice
- PROCEDURE TEXT: Intestinotrophic activity assessment: small bowel weight in mice
- Type: in vivo
- RECORDED CONDITIONS: mice, as Example 4; relative to native rat GLP-2(1-33)
Measured % Activity (small bowel inducing activity relative to native rat GLP-2(1-33) = 100%), listed per entry.
RESULT TYPE: % Activity (small bowel inducing activity relative to native rat GLP-2(1-33) = 100%)

{"columns": ["SUBSTANCE", "NUMERIC VALUE"],
 "data": [
  ["H-YGDGSFSDEMNTILDNLAARDFINWLIQTKITD-OH [[Tyr1, Gly2]hGLP-2(1-33)]", 241],
  ["H-HGAGSFSDEMNTILDNLAARDFINWLIQTKITD-OH [[Gly2,Ala3]hGLP-2(1-33)]", 44],
  ["H-HHDGSFSDEMNTILDNLAARDFINWLIQTKITD-OH [[His2]hGLP-2(1-33)]", 0],
  ["H-HADGSFSDEMNTILDNLAARDFINWLIQTRITD-OH [[Arg30]hGLP-2(1-33)]", 103],
  ["H-HGDGSFSDEMNTILDNLATRDFINWLIQTKITD-OH [[Gly2]ratGLP-2(1-33)]", 196],
  ["H-HADGSFSDEMNTILDNLAARDFINWLIQTKITN-OH [[Asn33]hGLP-2(1-33)]", 91],
  ["H-HVDGSFSDEMNTILDNLAARDFINWLIQTKITD-OH [[Val2]hGLP-2(1-33)]", 180],
  ["H-HADGSFSDEMNTILDNLATRDFINWLIQTKITD-OH [ratGLP-2(1-33), reference compound]", 100],
  ["H-HGDGSFSDEMNTILDNLAARDFINWLIQTAITD-OH [[Gly2,Ala30]hGLP-2(1-33)]", 24],
  ["H-HAPGSFSDEMNTILDNLAARDFINWLIQTKITD-OH [[Pro3]hGLP-2(1-33)]", 140],
  ["H-HGDGSFSDEMATILDNLAARDFINWLIQTKITD-OH [[Gly2,Ala11]hGLP-2(1-33)]", 150],
  ["H-HPDGSFSDEMNTILDNLAARDFINWLIQTKITD-OH [[Pro2]hGLP-2(1-33)]", 50],
  ["H-HGDGSFSDAMNTILDNLAARDFINWLIQTKITD-OH [[Gly2,Ala9]hGLP-2(1-33)]", 112],
  ["H-HMDGSFSDEMNTILDNLAARDFINWLIQTKITD-OH [[Met2]hGLP-2(1-33)]", 170]
]}
